Molecular target: UniProtKB C0HJB3
Sequence (C0HJB3 1-981): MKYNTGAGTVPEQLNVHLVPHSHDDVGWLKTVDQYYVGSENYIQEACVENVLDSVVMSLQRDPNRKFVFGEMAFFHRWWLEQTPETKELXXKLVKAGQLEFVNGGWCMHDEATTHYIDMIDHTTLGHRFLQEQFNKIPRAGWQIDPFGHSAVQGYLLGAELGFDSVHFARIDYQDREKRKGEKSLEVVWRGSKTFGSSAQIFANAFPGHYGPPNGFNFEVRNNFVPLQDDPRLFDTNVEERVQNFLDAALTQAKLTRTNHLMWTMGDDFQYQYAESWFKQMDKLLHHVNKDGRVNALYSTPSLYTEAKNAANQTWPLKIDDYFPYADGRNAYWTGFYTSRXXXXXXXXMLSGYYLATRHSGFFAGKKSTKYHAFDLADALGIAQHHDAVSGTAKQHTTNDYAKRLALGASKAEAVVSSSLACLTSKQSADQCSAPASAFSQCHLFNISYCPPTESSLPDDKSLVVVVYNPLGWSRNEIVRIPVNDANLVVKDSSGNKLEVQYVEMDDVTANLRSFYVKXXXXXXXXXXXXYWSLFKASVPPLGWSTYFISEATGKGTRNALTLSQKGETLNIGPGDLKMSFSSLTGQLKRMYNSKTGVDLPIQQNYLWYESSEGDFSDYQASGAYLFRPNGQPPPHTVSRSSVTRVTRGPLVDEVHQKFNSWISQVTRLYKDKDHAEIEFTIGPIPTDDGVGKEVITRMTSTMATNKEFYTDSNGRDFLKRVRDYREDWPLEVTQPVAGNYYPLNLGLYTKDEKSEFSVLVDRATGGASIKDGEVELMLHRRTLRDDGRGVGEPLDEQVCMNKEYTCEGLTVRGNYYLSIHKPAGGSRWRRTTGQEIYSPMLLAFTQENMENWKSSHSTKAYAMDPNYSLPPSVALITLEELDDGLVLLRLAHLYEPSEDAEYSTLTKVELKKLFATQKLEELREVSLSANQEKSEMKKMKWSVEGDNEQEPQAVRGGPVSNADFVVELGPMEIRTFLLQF
ATTRIBUTE MEASURED: Ki (mM)
Give bare numbers, in mM.

Recorded Ki of `O[C@H]1[C@H]2[C@H](O)CCN2C[C@H]1O` , please.
1.7

Cited source: patent US5023340A
